meta.source: patent US7074888B1

Molecular target: T1, synthetic biotinylated peptide mimotope having SEQ ID NO:1 (not fully specified (N-terminus))
T1 construct: chemically synthesized (Genosys); also called biotinylated mimotope peptide
T1 peptide: AWNWRYREYV
Assay: phage biopanning on biotinylated mimotope peptide SEQ ID NO:1
Ends that are not written are not given here.
Quantity: binding result

# Binder, Readout value
measured = [
    ("HSPFRHVQPR [anti-mimotope clone SEQ ID NO:171]", "binds"),
    ("RWLWPRVHKT [anti-mimotope clone SEQ ID NO:170]", "binds"),
    ("AGLNHWWKHK [anti-mimotope clone SEQ ID NO:97]", "binds"),
    ("RGWRWHKYWQ [anti-mimotope clone SEQ ID NO:162]", "binds"),
]
